# EXPERIMENTAL_DETAILS: Human Liver Microsomal Stability Test
# Assay type: in vitro ADME
# APPLIED_CONDITIONS: human liver microsomes; comparison compounds, Example numbers of WO 2011/092128
MEASUREMENT_NAME: microsomal stability Cl [% Qh] (% Qh)
Numbers only; they are read as % Qh.

Exercise: Consider the compound COc1cc(-c2cc3ncccc3c(O[C@H](C)[C@H]3CNC(=O)C3)n2)cc(OC)c1Cl [Example 8 of WO 2011/092128, reference compound] and give its measured microsomal stability Cl [% Qh].
Key: 77

Exercise: // microsomal stability Cl [% Qh] lookup, key: COc1cc(-c2cc3ncccc3c(O[C@H](C)[C@H]3CNC(=O)C3)n2)ccc1OC(F)(F)F
Key: 33

Exercise: Report microsomal stability Cl [% Qh] for COc1cc(-c2cc3nn(C)cc3c(O[C@H](C)[C@H]3CNC(=O)C3)n2)ccc1O please.
Key: 77

Exercise: Suppose we examine the compound C[C@@H](Oc1nc(-c2cnn(C3CCCCC3)c2)cc2nn(C)cc12)[C@H]1CNC(=O)C1 ; what microsomal stability Cl [% Qh] value has been reported?
Key: 79

* * *

Exercise: state measured IC50 for each of the molecules provided.
# TESTED_SYSTEM: Recombinant human Aurora B (amino acids 1-344) (Homo sapiens (Human))
# Sequence (Q96GD4 whole entry, the tested form may be a part): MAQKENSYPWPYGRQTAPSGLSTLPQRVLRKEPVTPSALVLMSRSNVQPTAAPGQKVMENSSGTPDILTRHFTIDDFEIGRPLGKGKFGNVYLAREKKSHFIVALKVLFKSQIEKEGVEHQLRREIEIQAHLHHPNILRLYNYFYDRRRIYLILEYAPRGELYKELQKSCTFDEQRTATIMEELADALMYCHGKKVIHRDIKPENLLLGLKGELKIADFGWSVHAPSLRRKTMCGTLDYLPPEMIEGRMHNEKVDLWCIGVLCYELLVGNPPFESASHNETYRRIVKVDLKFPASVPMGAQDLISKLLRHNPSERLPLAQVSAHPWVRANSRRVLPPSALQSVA
# EXPERIMENTAL_DETAILS: Aurora B Kinase Test (ADP Glo luminescence)
# Assay type: biochemical
# APPLIED_CONDITIONS: comparison compounds, Example numbers of WO 2011/092128; read-out: IC50 in μM (AURB-Inhibition)
Could you give me the number in µM? Just the number is fine.

Exercise: Which IC50 is reported with Recombinant human Aurora B (amino acids 1-344) (Homo sapiens (Human)) for this entry: COc1ccc(-c2cc3nn(C)cc3c(O[C@H](C)[C@H]3CNC(=O)C3)n2)cc1OC [Example 1] ?
Key: 5.09

Exercise: I'm curious: which IC50 was measured for C[C@@H](Oc1nc(-c2cnn(C3CCCCC3)c2)cc2nn(C)cc12)[C@H]1CNC(=O)C1 [Example 7] tested on Recombinant human Aurora B (amino acids 1-344) (Homo sapiens (Human))?
Key: 2.33

* * *

# TESTED_SYSTEM: Recombinant human Aurora B (amino acids 1-344) (Homo sapiens (Human))
# EXPERIMENTAL_DETAILS: Aurora B Kinase Test (ADP Glo luminescence)
# Assay type: biochemical
# APPLIED_CONDITIONS: read-out: IC50 in μM (AURB-Inhibition)
MEASUREMENT_NAME: IC50 (µM)
# value in µM; strip the unit string

Exercise: Lab request: please report IC50 under test system Recombinant human Aurora B (amino acids 1-344) (Homo sapiens (Human)) for C[C@@H](Oc1cc(-c2cscn2)cc2nn(C)cc12)[C@H]1CNC(=O)C1
Key: 0.293

* * *

# TESTED_SYSTEM: Recombinant human Syk (amino acids 342-635) (Homo sapiens (Human))
# EXPERIMENTAL_DETAILS: Syk Kinase Test (Kinase Glo luminescence)
# Assay type: biochemical
# APPLIED_CONDITIONS: comparison compounds, Example numbers of WO 2013/014060; read-out: IC50 in μM (SYK-Inhibition)
# Description: The output file of the reader is a csv file that contains the well number and measured relative light units (RLU). […] Based on this values the % value for the measurement of each substance concentration was calculated using an Assay Explorer software (Accelrys). Normally, the % ctrl values calculated are between 0% and 100% values but may also occur outside these limits in individual cases based on variability or compound characteristics. […]
MEASUREMENT_NAME: IC50 (µM)
Response body: numeric value in µM, unit text excluded.

Exercise: Would you kindly share the measured IC50 for C[C@@H](Oc1nc(-c2cc3nn(C)cc3c(O[C@H](C)[C@H]3CNC(=O)C3)n2)cc2nn(C)cc12)[C@@H]1CNC(=O)C1 [Example 11] ?
Key: 0.002

Exercise: What value of IC50 has been recorded for this entry: C[C@@H](Oc1cc(-c2ccc(C3CCN(C)CC3)cc2)cc2nn(C)cc12)[C@H]1CNC(=O)C1 [Example 42]
Key: 0.002

Exercise: # lookup: IC50 of C[C@@H](Oc1nc(-c2ccc(C(F)(F)F)nc2)cc2nn(C)cc12)[C@H]1CNC(=O)C1 [Example 61]
Key: 0.002
